Test system: hiPSC-derived 3D neurospheres
Assay: cells
Format: cell-based, human
Settings: Homo sapiens, 72 h, D28 3D neurospheres, 72 h exposure; read-out: EC25 (cell viability) (converted)
Counter-ions that a name gives are not always drawn.
List of EC25 values.
Please respond with the number in µM and leave the unit unwritten.

Oc1c(Cl)cc(Cl)c(Cl)c1Cc1c(O)c(Cl)cc(Cl)c1Cl	1.62

Would you mind telling me what EC25 value was observed for COc1cccc2c1C(=O)c1c(O)c3c(c(O)c1C2=O)C[C@@](O)(C(=O)CO)C[C@@H]3O[C@H]1C[C@H](N)[C@H](O)[C@H](C)O1 [Doxorubicin, Doxorubicin hydrochloride] ?
5.25

Would you mind doing `C[n+]1ccc(-c2cc[n+](C)cc2)cc1` as well?
46.8

###

List of EC10 values.
System: hiPSC-derived 3D neurospheres
Assay: cells
Type: cell-based, human
Settings: Homo sapiens, 72 h, D42 3D neurospheres, 72 h exposure; read-out: EC10 (cell viability) (converted)
Counter-ions that a name gives are not always drawn.

Oc1c(Cl)cc(Cl)c(Cl)c1Cc1c(O)c(Cl)cc(Cl)c1Cl	0.0661 µM

Would you mind telling me what EC10 value was observed for `CCCC(CCC)C(=O)O` ?
> 398 µM

Would you mind doing `C[n+]1ccc(-c2cc[n+](C)cc2)cc1` as well?
12.3 µM

Would you mind doing CC(C)Cc1ccc(C(C)C(=O)O)cc1 (centres unmarked) as well?
> 100 µM

Would you mind doing COc1cccc2c1C(=O)c1c(O)c3c(c(O)c1C2=O)C[C@@](O)(C(=O)CO)C[C@@H]3O[C@H]1C[C@H](N)[C@H](O)[C@H](C)O1 [Doxorubicin, Doxorubicin hydrochloride] as well?
3.09 µM

###

List of EC25 values.
Test system: hiPSC-derived 3D neurospheres
Assay: cells
Format: cell-based, human
Details: Homo sapiens, 72 h, D42 3D neurospheres, 72 h exposure; read-out: EC25 (cell viability) (converted)
Structures can show the parent of a compound that is named as a salt.
Please respond with the number in µM and leave the unit unwritten.

Take a look at these entries with their results.
COc1cccc2c1C(=O)c1c(O)c3c(c(O)c1C2=O)C[C@@](O)(C(=O)CO)C[C@@H]3O[C@H]1C[C@H](N)[C@H](O)[C@H](C)O1 [Doxorubicin, Doxorubicin hydrochloride]	7.94
C[n+]1ccc(-c2cc[n+](C)cc2)cc1 [Paraquat]	27.5

Next:
Would you mind telling me what EC25 value was observed for Oc1c(Cl)cc(Cl)c(Cl)c1Cc1c(O)c(Cl)cc(Cl)c1Cl [Hexachlorophene, 2,2′-Methylenebis(3,4,6-trichlorophenol)] ?
0.457

###

Tested on: hiPSC-derived 3D neurospheres
Assay: cells
Assay type: cell-based, human
Details: Homo sapiens, 72 h, D21 3D neurospheres, 72 h exposure; read-out: EC25 (cell viability) (converted)
Counter-ions that a name gives are not always drawn.
assay.endpoint: EC25 (µM)
Please respond with the number in µM and leave the unit unwritten.

Take a look at these entries with their results.
COc1cccc2c1C(=O)c1c(O)c3c(c(O)c1C2=O)C[C@@](O)(C(=O)CO)C[C@@H]3O[C@H]1C[C@H](N)[C@H](O)[C@H](C)O1 [Doxorubicin, Doxorubicin hydrochloride]	1.1
C[n+]1ccc(-c2cc[n+](C)cc2)cc1	33.1

Would you mind telling me what EC25 value was observed for `Oc1c(Cl)cc(Cl)c(Cl)c1Cc1c(O)c(Cl)cc(Cl)c1Cl` ?
3.39

###

Test system: hiPSC-derived 3D neurospheres
Assay: cells
Type: cell-based, human
Settings: Homo sapiens, 72 h, D28 3D neurospheres, 72 h exposure; read-out: EC50 (cell viability) (converted)
Where a name gives a salt, the structure may show the parent alone.
assay.endpoint: EC50 (µM)
Please respond with the number in µM and leave the unit unwritten.

Take a look at these entries with their results.
Oc1c(Cl)cc(Cl)c(Cl)c1Cc1c(O)c(Cl)cc(Cl)c1Cl	10.2
C[n+]1ccc(-c2cc[n+](C)cc2)cc1	95.5

Next:
Would you mind telling me what EC50 value was observed for COc1cccc2c1C(=O)c1c(O)c3c(c(O)c1C2=O)C[C@@](O)(C(=O)CO)C[C@@H]3O[C@H]1C[C@H](N)[C@H](O)[C@H](C)O1 [Doxorubicin, Doxorubicin hydrochloride] ?
12.9
